All figures here come from PubChem BioAssay.

measurement notes: fission yeast growth modulation, primary screen, strain 972, OD600, 24 h, no modulator (AID 1090);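 also: basal condition with compound alone and no growth modifier present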
experimental setup: S. pombe 972 growth, higher = more signal, called active from +8 up or from −8 down
Values of z-score greater than or equal to 0.09 map to satisfied; values below map to not satisfied.

Data request: Hi team, for C=C(C(=O)CC[C@@H](OC(=O)c1cccnc1)c1cccc(OCCO)c1)C(C)C , is the recorded z-score at or above 0.09?
Data returned: not satisfied

Data request: Hi team, for C=CCN1C(=O)[C@@]2(O[C@@H](CCO)[C@H]([Si](C)(C)c3ccc(OC)cc3)[C@H]2C)c2cc(N3CCCCC3=O)ccc21 , is the recorded z-score at or above 0.09?
Data returned: satisfied

Data request: Hi team, for CN(C)CCCC[C@@H]1NC(=O)[C@H]2C[C@@H](C(=O)NCCCCCCNC(=O)CS)[C@@H](c3cccc(OCCO)c3)N2C1=O , is the recorded z-score at or above 0.09?
Data returned: not satisfied

Data request: Hi team, for COC(=O)C(CC#Cc1ccc2c(c1)[C@]1(C(=O)N2)[C@H](C(=O)NC[C@H](O)c2ccccc2)[C@H]2C(=O)O[C@H](c3ccccc3)[C@H](c3ccccc3)N2[C@@H]1c1ccc(O)cc1)C(=O)OC , is the recorded z-score at or above 0.09?
Data returned: satisfied

Data request: Hi team, for CC(CO)N1C(=O)[C@@H]2[C@H]3C(=O)OCC=C[C@H]3OC23C=CCN(c2ccc4ccccc4c2)C(=O)[C@@H]13 (some centres not stated) , is the recorded z-score at or above 0.09?
Data returned: not satisfied

Data request: Hi team, for O=C1OC[C@@H](c2ccccc2)n2cc(/C=C/c3ccccc3)cc21 , is the recorded z-score at or above 0.09?
Data returned: not satisfied

Data request: Hi team, for C=CCNC(=O)[C@H]1[C@@H]2C(=O)O[C@@H](c3ccccc3)[C@@H](c3ccccc3)N2[C@@H](c2ccc(O)cc2)[C@]12C(=O)N(C(=O)OCCOC)c1ccc(C#Cc3ccc(OC)cc3)cc12 , is the recorded z-score at or above 0.09?
Data returned: not satisfied

Data request: Hi team, for CCOC(=O)C[C@H]1[C@H](OC(=O)c2cc3ccccc3oc2=O)[C@@H](NC(=O)Cc2ccc(OC)cc2)c2cc(OCCCO)ccc2N1C(=O)Cc1ccc(OC)cc1 , is the recorded z-score at or above 0.09?
Data returned: not satisfied

Data request: Hi team, for CCCCC(=C=CC[C@H](O)c1cccc(OCCO)c1)C[C@H](O)c1cc(Cl)cc(Cl)c1O , is the recorded z-score at or above 0.09?
Data returned: not satisfied

Data request: Hi team, for O=C1O[C@@H](c2ccccc2)[C@@H](c2ccccc2)N2[C@@H](c3ccc(OCCO)cc3)[C@]3(C(=O)Nc4ccc(C#CC5=CCCCC5)cc43)[C@@H](C(=O)Nc3nc4ccccc4s3)[C@H]12 , is the recorded z-score at or above 0.09?
Data returned: satisfied

Data request: Hi team, for CCOC(=O)C=C1C[C@@H](c2cccc([N+](=O)[O-])c2)O[C@@H](c2cccc([N+](=O)[O-])c2)O1 , is the recorded z-score at or above 0.09?
Data returned: satisfied

Data request: Hi team, for C[C@H]1C2[C@H](Cc3ccccc3)NC(=O)[C@]23C(=O)N[C@@H](Cc2ccccc2)C(=O)N2CCC[C@H]2C(=O)NC/C=C/CC/C=C/C3[C@@H]2O[C@]12C (some centres not stated) , is the recorded z-score at or above 0.09?
Data returned: not satisfied

Data request: Hi team, for COC(=O)Cn1c(C(=O)N(C)C)cc2c1C[C@H]1CN(C(=O)c3ccccc3)[C@@](Cc3ccccc3)(C(=O)OC)[C@@H]21 , is the recorded z-score at or above 0.09?
Data returned: not satisfied

---

Quick list: composite z-score per entry.
measurement notes: binders of probe aFSTL3 on microarray, primary screen, stem cell growth factor project, biochemical, small-molecule microarray, fluorescence 635/667 (AID 1064);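 also: measures binding of the biotinylated anti-FSTL3 antibody to printed compounds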
experimental setup: higher = more signal
Respond using a number only.

Below, each entry is followed by its recorded composite z-score result.
INSERT INTO results (structure_string, endpoint_result) VALUES
  ('C=C(C(=O)CC[C@@H](OC(=O)c1cccnc1)c1cccc(OCCO)c1)C(C)C', -0.512),
  ('[N-]=[N+]=NCc1ccccc1C[C@]1(C(=O)N2CCCCC2)COC(c2ccc(OCCCO)cc2)=N1', 0.438),
  ('CC[C@@H](O[Si](C#C[Si](C(C)C)(C(C)C)C(C)C)(C(C)C)C(C)C)c1cn(Cc2cccc(Cl)c2)nn1', -0.385);

Pending compound:
The compound listed as COCCOC(=O)N1C(=O)[C@@]2(c3cc(C#CCNC(N)=O)ccc31)[C@H](c1ccccc1OCCO)N1[C@H](c3ccccc3)[C@H](c3ccccc3)OC(=O)[C@H]1[C@@H]2C(=O)N1CCCCCCC1 shows composite z-score equal to 1.63

---

measurement notes: binders of probe aHhip on microarray, primary screen, stem cell growth factor project, biochemical, small-molecule microarray, fluorescence 635/667 (AID 1087);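 also: score merges spot fluorescence at 667nm with spot signal to noise ratio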
experimental setup: higher = more signal
Values of composite z-score greater than or equal to -0.09 map to 1.0; values below map to 0.0.

INSERT INTO measurements (molecule, class_name) VALUES
  ('C=C[C@H](OC)[C@@H](O)c1ccc(OC)c(O)c1', 1.0);

Data request: Hi team, for COC(=O)C1=CC(CCCO)=CC(c2ccc(CN3CCCC3)cc2)N(C)C=C1C(=O)OC (stereo not given) , is the recorded composite z-score at or above -0.09?
Data returned: 0.0

Data request: Hi team, for CCCCC(=C=CC[C@@H](O)c1ccccc1OCCO)C[C@@H](O)c1ccccn1 , is the recorded composite z-score at or above -0.09?
Data returned: 1.0

Data request: Hi team, for CCCCCCc1nc(Cc2cc(OC)c(OC)c(OC)c2)c(C)c2c1[Si](C(C)C)(C(C)C)OC2 , is the recorded composite z-score at or above -0.09?
Data returned: 0.0

Data request: Hi team, for O=C1C2C=CC(C(O)C3CC=CCC3)N(Nc3ccc([N+](=O)[O-])cc3)C2C(=O)N1c1ccccc1 (stereo not given) , is the recorded composite z-score at or above -0.09?
Data returned: 1.0

Data request: Hi team, for C[N+](C)(C)CCCC[C@@H]1NC(=O)[C@H]2C[C@@H](C(=O)O)[C@@H](c3ccc(O)cc3)N2C1=O , is the recorded composite z-score at or above -0.09?
Data returned: 0.0

---

Tested on: XIP peptide (Xip251-270) binding
measurement notes: small-molecule binders of XIP peptide, primary screen, biochemical, small-molecule microarray, fluorescence 635/667 nm, 0.1 µg/mL protein (AID 1182)
experimental setup: fluorescent protein binding, 635 nm, higher = more signal, called active from +8 up or from −8 down
Quick list: composite z-score per entry.
Respond using a number only.

INSERT INTO assay_data (compound, endpoint_result) VALUES
  ('COc1ccc(C(=O)Nc2ccc(CN3C(=O)[C@@]4(O[C@@H](CC(=O)N(CCO)Cc5ccccc5)[C@H]([Si](C)(C)c5ccc(OC)cc5)[C@H]4C)c4ccccc43)cc2)cc1', 1.96);

The compound listed as COCCCNC(=O)[C@]1(Cc2ccccc2CN=[N+]=[N-])N=C(c2ccc(OCCCO)cc2)O[C@@H]1c1ccccc1N=[N+]=[N-] shows composite z-score equal to 0.228

---

measurement notes: small-molecule binders of probe aNOTCH2, primary screen, biochemical, small-molecule microarray, 635/667 nm fluorescence (AID 1121);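 also: score merges feature fluorescence read at 667 nm with its signal to noise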
experimental setup: higher = more signal
Values of composite z-score greater than or equal to -0.02 map to yes; values below map to no.

# example entries with known answers
INSERT INTO measurements (compound, class_name) VALUES
  ('COc1ccc([Si](C)(C)[C@H]2[C@H](CC(=O)N(CCO)Cc3ccccc3)O[C@@]3(C(=O)N(c4ccccc4)c4ccccc43)[C@@H]2C)cc1', 'no'),
  ('C[C@H]1C2[C@H](Cc3ccccc3)NC(=O)[C@]23C(=O)N[C@@H](Cc2ccccc2)C(=O)N2CCC[C@H]2C(=O)NC/C=C/CC/C=C/C3[C@@H]2O[C@]12C (stereo partly drawn)', 'no'),
  ('C[C@@]1([C@@H](NS(=O)(=O)c2cccc3cccnc23)c2ccc(-c3ccccc3)cc2)C[C@H]1C1CCCCC1', 'yes');

Data request: Hi team, for COC(=O)Cn1c(C(=O)N(C)C)cc2c1C[C@H]1CN(C(=O)c3ccccc3)[C@@](Cc3ccccc3)(C(=O)OC)[C@@H]21 , is the recorded composite z-score at or above -0.02?
Data returned: yes

Data request: Hi team, for COC(=O)C(CC#Cc1ccc2c(c1)[C@]1(C(=O)N2)[C@H](c2ccc(OCCO)cc2)N2[C@H](c3ccccc3)[C@H](c3ccccc3)OC(=O)[C@H]2[C@@H]1C(N)=O)C(=O)OC , is the recorded composite z-score at or above -0.02?
Data returned: no

Data request: Hi team, for COCCOC(=O)N1C(=O)[C@@]2(c3cc(C#CCC(C(=O)OC)C(=O)OC)ccc31)[C@H](c1ccc(O)cc1)N1[C@H](c3ccccc3)[C@H](c3ccccc3)OC(=O)[C@H]1[C@@H]2C(=O)N1CCc2cc(OC)c(OC)cc2C1 , is the recorded composite z-score at or above -0.02?
Data returned: yes

Data request: Hi team, for CCOC(=O)C[C@H]1[C@H](OC(=O)c2ccc(-c3ccccc3)cc2)[C@@H](NC(=O)C2CCCCC2)c2cc(OCCCO)ccc2N1C(=O)Cc1ccc(OC)cc1 , is the recorded composite z-score at or above -0.02?
Data returned: no

Data request: Hi team, for C=CCNC(=O)[C@H]1[C@@H]2C(=O)O[C@@H](c3ccccc3)[C@@H](c3ccccc3)N2[C@@H](c2ccc(O)cc2)[C@]12C(=O)Nc1ccc(C#CCC(C(=O)OC)C(=O)OC)cc12 , is the recorded composite z-score at or above -0.02?
Data returned: yes

Data request: Hi team, for C[N+](C)(C)CCCC[C@@H]1NC(=O)[C@H]2C[C@@H](C(=O)O)[C@@H](c3ccc(O)cc3)N2C1=O , is the recorded composite z-score at or above -0.02?
Data returned: no

Data request: Hi team, for CN1C(=O)C2CC=C(C3=CCO[C@@H]3[C@H]3CCCN3S(=O)(=O)c3ccccc3[N+](=O)[O-])CC2C1=O (stereo partly drawn) , is the recorded composite z-score at or above -0.02?
Data returned: no

Data request: Hi team, for CC(C)(C)OC(=O)CC[C@]1(C(N)=O)N=C(c2ccc(OCCCO)cc2)O[C@H]1c1ccccc1N=[N+]=[N-] , is the recorded composite z-score at or above -0.02?
Data returned: no

Data request: Hi team, for O=C/C=C/c1ccc(-c2ccccc2)cc1 , is the recorded composite z-score at or above -0.02?
Data returned: no

Data request: Hi team, for Cc1ccc(S[C@]2(C(=O)NCCN3CCOCC3)CC(=O)N(C(C)C)[C@@H]2c2ccc(CO)cc2I)cc1 , is the recorded composite z-score at or above -0.02?
Data returned: no
